- Test system: 653999-131-R-J2-PDC complex spheroids, growth inhibition
- assay_info: Anticancer human tumor 653999-131-R-J2-PDC patient-derived lung adenocarcinoma cell line growth inhibition [RAS]
- experimental_conditions: second compound 0.000949 µM; first compound 0.0949 µM; hits give low values
reported_metric: viability, T/C (%)

molecule="CCc1c2c(nc3ccc(O)cc13)-c1cc3c(c(=O)n1C2)COC(=O)[C@]3(O)CC + CCn1c(-c2cc(N3CCN(C)CC3)cnc2C(C)OC)c2c3cc(ccc31)-c1csc(n1)CC(NC(=O)C1CC1C)C(=O)N1CCCC(N1)C(=O)OCC(C)(C)C2" value=17.2
molecule="CC1(C)CCC(Nc2ncc(C(F)(F)F)c(-c3c[nH]c4c(P(C)(C)=O)c(C#N)ccc34)n2)CN1 (centres undefined) + CCn1c(-c2cc(N3CCN(C)CC3)cnc2C(C)OC)c2c3cc(ccc31)-c1csc(n1)CC(NC(=O)C1CC1C)C(=O)N1CCCC(N1)C(=O)OCC(C)(C)C2" value=56.4
molecule="CCc1c2c(nc3ccc(O)cc13)-c1cc3c(c(=O)n1C2)COC(=O)[C@]3(O)CC + CCn1c(-c2cccnc2C(C)OC)c2c3cc(ccc31)N1CCOC(CC(NC(=O)C(C(C)C)N(C)C(=O)C3(F)CCN(C(=O)C#CC(C)(C)N(C)C)CC3)C(=O)N3CCCC(N3)C(=O)OCC(C)(C)C2)C1" value=30
molecule="CC1(C)CCC(Nc2ncc(C(F)(F)F)c(-c3c[nH]c4c(P(C)(C)=O)c(C#N)ccc34)n2)CN1 (centres undefined) + CCn1c(-c2cccnc2C(C)OC)c2c3cc(ccc31)N1CCOC(CC(NC(=O)C(C(C)C)N(C)C(=O)C3(F)CCN(C(=O)C#CC(C)(C)N(C)C)CC3)C(=O)N3CCCC(N3)C(=O)OCC(C)(C)C2)C1" value=84.6

###

Collected viability, T/C values appear next to each entry.
- Test system: 653999-131-R-J2-PDC complex spheroids, growth inhibition
- assay_info: Anticancer human tumor 653999-131-R-J2-PDC cell line growth inhibition [RAS];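 also: spheroids exposed to the agents for seven days before the readout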
- experimental_conditions: second compound 0.003 µM; first compound 0.0316 µM; hits give low values
- Excerpt: RAS pathway inhibitors in Combinations in Complex Spheroids A high-throughput screen of multi-cell type tumor spheroids was designed to identify active combinations of RAS pathway inhibitors and targeted small molecules. Complex spheroids include a stromal component modeled by human endothelial cells (HUVEC) and fibroblasts modeled by human mesenchymal stem cells (MSCs). […] Compounds. […] If the clinical Cmax for an agent had not been determined, the highest concentration tested was 10 microM. […]
reported_metric: viability, T/C (%)

compound="CCC(CC)c1cc(NC2CCC(N)C2)n2nccc2n1 (configuration not stated) + CCn1c(-c2cccnc2C(C)OC)c2c3cc(ccc31)N1CCOC(CC(NC(=O)C(C(C)C)N(C)C(=O)C3(F)CCN(C(=O)C#CC(C)(C)N(C)C)CC3)C(=O)N3CCCC(N3)C(=O)OCC(C)(C)C2)C1" units_text=% value=111
compound="CC(Nc1ccc2c(c1)OCCn1cc(N3C(=O)OCC3C(F)F)nc1-2)C(N)=O (configuration not stated) + CCn1c(-c2cc(N3CCN(C)CC3)cnc2C(C)OC)c2c3cc(ccc31)-c1csc(n1)CC(NC(=O)C1CC1C)C(=O)N1CCCC(N1)C(=O)OCC(C)(C)C2" units_text=% value=60
